- Target or test system: Transient receptor potential cation channel subfamily V member 1 (Rattus norvegicus, UniProt O35433)
- Sequence (O35433 whole entry): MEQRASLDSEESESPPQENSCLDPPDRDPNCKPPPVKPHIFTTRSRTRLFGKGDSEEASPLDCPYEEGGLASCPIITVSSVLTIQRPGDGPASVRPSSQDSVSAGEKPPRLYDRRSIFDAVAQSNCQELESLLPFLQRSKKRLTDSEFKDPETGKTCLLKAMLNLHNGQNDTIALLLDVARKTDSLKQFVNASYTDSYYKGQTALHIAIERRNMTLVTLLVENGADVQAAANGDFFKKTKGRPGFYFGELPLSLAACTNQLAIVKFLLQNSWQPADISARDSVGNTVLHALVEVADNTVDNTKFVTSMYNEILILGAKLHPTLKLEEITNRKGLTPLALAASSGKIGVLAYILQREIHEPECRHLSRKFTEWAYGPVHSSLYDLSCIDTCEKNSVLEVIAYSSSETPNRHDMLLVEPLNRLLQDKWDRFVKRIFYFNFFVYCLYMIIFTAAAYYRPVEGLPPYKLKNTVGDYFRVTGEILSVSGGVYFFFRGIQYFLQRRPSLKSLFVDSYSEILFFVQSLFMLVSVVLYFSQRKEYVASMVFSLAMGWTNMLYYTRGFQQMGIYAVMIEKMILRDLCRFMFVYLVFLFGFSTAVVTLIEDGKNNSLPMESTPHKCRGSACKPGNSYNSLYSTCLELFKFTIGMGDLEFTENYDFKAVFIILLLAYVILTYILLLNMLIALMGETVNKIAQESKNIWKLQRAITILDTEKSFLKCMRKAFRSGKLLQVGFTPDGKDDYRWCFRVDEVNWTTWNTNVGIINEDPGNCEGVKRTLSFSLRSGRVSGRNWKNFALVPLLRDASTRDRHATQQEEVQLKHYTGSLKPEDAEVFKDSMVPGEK
- Measurement notes: Antagonist activity at recombinant rat TRPV1 expressed in HEK293 cells assessed as reduction in capsaicin-induced Ca2+ flux preincubated for 3 mins followed by capsaicin addition measured by calcium 4-dye based FLIPR assay
Experimental endpoint: pKi
pKi is defined as minus the log10 of a concentration measured in mol/L.

Query: Given CC1CCN(c2nc(C(F)(F)F)ccc2CNC(=O)C(C)c2cc(F)c(NS(C)(=O)=O)c(F)c2)CC1 (stereo unspecified) , state its recorded pKi.
Result: 10.00

###

# pKi listing for each entry below
- Target or test system: Transient receptor potential cation channel subfamily V member 1 (Homo sapiens, UniProt Q8NER1)
- Sequence (Q8NER1 whole entry): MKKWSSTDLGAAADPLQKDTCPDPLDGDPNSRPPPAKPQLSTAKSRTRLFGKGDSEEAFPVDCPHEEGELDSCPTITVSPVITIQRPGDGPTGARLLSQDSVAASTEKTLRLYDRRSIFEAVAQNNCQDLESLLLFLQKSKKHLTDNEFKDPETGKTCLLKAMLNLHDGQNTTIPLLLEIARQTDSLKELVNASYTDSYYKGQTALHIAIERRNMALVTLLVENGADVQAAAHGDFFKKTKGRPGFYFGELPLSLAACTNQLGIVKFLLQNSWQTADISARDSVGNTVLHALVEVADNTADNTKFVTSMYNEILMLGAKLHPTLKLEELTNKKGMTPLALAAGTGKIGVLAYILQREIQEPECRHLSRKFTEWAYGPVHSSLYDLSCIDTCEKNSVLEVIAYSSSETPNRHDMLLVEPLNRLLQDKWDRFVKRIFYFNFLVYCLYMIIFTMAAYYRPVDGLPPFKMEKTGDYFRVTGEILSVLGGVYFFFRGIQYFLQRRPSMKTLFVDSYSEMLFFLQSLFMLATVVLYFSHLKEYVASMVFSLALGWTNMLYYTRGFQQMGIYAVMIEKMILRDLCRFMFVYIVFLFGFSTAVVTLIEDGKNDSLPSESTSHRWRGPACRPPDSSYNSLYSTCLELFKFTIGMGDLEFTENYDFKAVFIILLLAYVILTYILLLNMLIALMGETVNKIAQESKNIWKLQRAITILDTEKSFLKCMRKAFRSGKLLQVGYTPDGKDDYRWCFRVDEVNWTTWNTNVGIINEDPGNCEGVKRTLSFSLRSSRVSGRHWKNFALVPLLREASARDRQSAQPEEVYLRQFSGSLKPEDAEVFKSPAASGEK
- Measurement notes: Antagonist activity at recombinant human TRPV1 expressed in CHOK1 cells assessed as reduction in capsaicin-induced Ca2+ flux after 15 mins by fluo-4-based FLIPR assay
- Format: cell-based
- Conditions: read-out: Ki
# pKi: negative log10 of molar concentration; output just the value

• COc1cc(C(C)C(=O)NCc2ccc(C(F)(F)F)nc2N2CCC(C)CC2)ccc1NS(C)(=O)=O (centres undefined) = 9.10
• CC1CCN(c2nc(C(F)(F)F)ccc2CNC(=O)C(C)c2ccc(NS(N)(=O)=O)c(F)c2)CC1 (centres undefined) = 8.57
• COc1cc(C(C)C(=O)NCc2ccc(C(F)(F)F)nc2N2CCC(C)CC2)cc(OC)c1NS(C)(=O)=O (centres undefined) = 8.80
• CC1CCN(c2nc(C(F)(F)F)ccc2CNC(=O)C(C)c2cc(F)c(NS(C)(=O)=O)c(F)c2)CC1 (centres undefined) = 9.70
• CC1CCN(c2nc(C(F)(F)F)ccc2CNC(=O)C(C)c2ccc(NS(C)(=O)=O)c(Br)c2)CC1 (centres undefined) = 8.49
• COc1cc(C(C)C(=O)NCc2ccc(C(F)(F)F)nc2N2CCC(C)CC2)cc(F)c1NS(C)(=O)=O (centres undefined) = 9.52
• CC1CCN(c2nc(C(F)(F)F)ccc2CNC(=O)C(C)c2cc(F)c(NS(C)(=O)=O)c(Br)c2)CC1 (centres undefined) = 9.15
• CC1CCN(c2nc(C(F)(F)F)ccc2CNC(=O)C(C)c2ccc(NS(C)(=O)=O)c(Cl)c2)CC1 (centres undefined) = 8.64

Query: Query (compound): C=CC(=O)N(c1ccc(C(C)C(=O)NCc2ccc(C(F)(F)F)nc2N2CCC(C)CC2)cc1F)S(C)(=O)=O (centres undefined) ; field requested: pKi
Result: 8.62

###

- Target or test system: Transient receptor potential cation channel subfamily V member 1 (Homo sapiens, UniProt Q8NER1)
- Measurement notes: Antagonist activity at recombinant human TRPV1 expressed in CHOK1 cells assessed as reduction in temperature-induced Ca2+ flux after 15 mins at 45 degC by fluo-4-based FLIPR assay
- Format: cell-based
Experimental endpoint: pIC50
Keep it numeric: pIC50 is minus log10 of the concentration in mol/L.

Query: Query (compound): CC1CCN(c2nc(C(F)(F)F)ccc2CNC(=O)C(C)c2cc(F)c(NS(C)(=O)=O)c(F)c2)CC1 (stereo unspecified) ; field requested: pIC50
Result: 8.09

Where do the numbers come from? From ChEMBL document CHEMBL4118257.
